Overview of recorded Growth Rate for various compounds
tested on: U2OS; assay: Incucyte cell viability with U2OS; type: toxicity, cell-based; conditions: human, 6 h, 10 µM, compound concentration 10 uM, replicate number 1, timepoint 6 hours; also: filed as whole numbers so only -1 and 0 and 1 occur
measuredQuantity: Growth Rate

compound: C[C@@H](NC(=O)Nc1cc2[nH]ncc2c(CO)n1)c1ccccc1 [ERKi]
measuredTarget: U2OS
testResult: 0

compound: Cc1c(Nc2ccc(S(=O)(=O)N3CCN(C)CC3)cc2F)nc2ccc(-c3cnn(C4CC4)c3)cn2c1=O
measuredTarget: U2OS
testResult: 1

compound: CN1C(=O)[C@@H](NC(=O)c2cc3ccccc3[nH]2)N=C(c2ccccc2)c2ccccc21 [DEVAZEPIDE]
measuredTarget: U2OS
testResult: 1

compound: COc1cc(C)c(Sc2cnc(NC(=O)c3ccc(CNC(C)C(C)(C)C)cc3)s2)cc1C(=O)N1CCN(C(C)=O)CC1 (configuration not stated)
measuredTarget: U2OS
testResult: 0

compound: Cc1c(Nc2ccc(S(=O)(=O)N3CCN(C)CC3)cc2F)nc2ccc(Nc3cnn(C4CC4)c3)cn2c1=O
measuredTarget: U2OS
testResult: 0

compound: Cc1ccc(NC(=O)Nc2cc(C(F)(F)F)ccc2F)cc1Nc1ccc2c(c1)NC(=O)/C2=C\c1ccc[nH]1
measuredTarget: U2OS
testResult: 1

compound: C=CC(=O)Nc1cc(-n2c(=O)ccc3cnc4ccc(-c5ccc(NS(C)(=O)=O)cc5)cc4c32)ccc1C
measuredTarget: U2OS
testResult: 1

compound: CC(C)c1cc(Nc2nc(N3CCC[C@H](N)C3)ncc2C(N)=O)cc(C(C)C)n1
measuredTarget: U2OS
testResult: 0

compound: CNC(=O)Nc1ccc2c(c1)CC[C@@]21OC(=O)N(CC(=O)N(Cc2ccc(F)cc2)[C@@H](C)C(F)(F)F)C1=O [A-485]
measuredTarget: U2OS
testResult: 0

compound: CCCOc1ccn2c(C(C)=O)cc(-c3cccc(OC)c3)c2c1
measuredTarget: U2OS
testResult: 0

compound: Oc1cccc(-c2nc(N3CCOCC3)c3oc4ncccc4c3n2)c1 [PI-103]
measuredTarget: U2OS
testResult: 1

compound: COc1ncc(F)cc1CNc1ccc(Cc2c[nH]c3ncc(C)cc23)c(F)n1 [PLX-5622]
measuredTarget: U2OS
testResult: 0

Reference for the values: ChEMBL document CHEMBL4689842
